Target: plant AMP deaminase
Test: Plant AMP deaminase inhibition assay
Conditions: 10 minute preincubation; substrate concentration 640 μM; read-out: 50% inhibition of AMP deaminase activity
measured_parameter: IC50
Answer shape: numeric part, then the unit.

// assay plant AMP deaminase, entry O=P(O)(O)OC[C@H]1C[C@@H](n2cnc3c2N=CNC[C@H]3O)[C@H](O)[C@@H]1O [carbocyclic coformycin 5'-phosphate] , IC50 value = 0.02 µM

New cases:
Tested on plant AMP deaminase, the item OC[C@H]1C[C@@H](n2cnc3c2N=CNC[C@H]3O)[C@H](O)[C@@H]1O [carbocyclic coformycin] showed IC50 equal to 120 µM

###

Biological target: calf intestinal mucosa adenosine deaminase (Bos taurus, UniProt P56658)
Sequence (P56658 whole entry): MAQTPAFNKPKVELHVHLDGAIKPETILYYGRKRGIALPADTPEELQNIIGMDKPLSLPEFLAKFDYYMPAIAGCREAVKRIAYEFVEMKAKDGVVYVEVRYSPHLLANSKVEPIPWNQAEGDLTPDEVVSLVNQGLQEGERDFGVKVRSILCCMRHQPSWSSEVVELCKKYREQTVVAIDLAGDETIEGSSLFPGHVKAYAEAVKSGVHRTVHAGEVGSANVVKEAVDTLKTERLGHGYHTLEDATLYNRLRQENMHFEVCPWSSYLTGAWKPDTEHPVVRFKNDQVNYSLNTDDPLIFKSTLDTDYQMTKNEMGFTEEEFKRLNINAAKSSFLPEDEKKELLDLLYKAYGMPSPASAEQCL
measured_parameter: IC50 (nM)
Provide the reading as a plain figure in nM.

IC50 of "OC[C@H]1C[C@@H](n2cnc3c2N=CNC[C@H]3O)[C@H](O)[C@@H]1O" , assay on calf intestinal mucosa adenosine deaminase (Bos taurus, UniProt P56658), is 25
